Provide the reported inhibition of each item.
# tgt: UniProt:P53341
# procedure-summary: Inhibition of yeast alpha-glucosidase MAL12 assessed as inhibition of p-nitrophenol release at 500 uM by spectrophotometry relative to control
Give bare numbers, in %.

- compound: "CO[C@@H]1O[C@H](Cn2cc(COC3CCCCO3)nn2)[C@H]2OC(C)(C)O[C@@H]12 (some centres undefined)"
  measure-name: "inhibition"
  measured: 79.5
- compound: "CO[C@@H]1O[C@H](Cn2cc(-c3ccccc3)nn2)[C@H]2OC(C)(C)O[C@@H]12"
  measure-name: "inhibition"
  measured: 94.4
- compound: "CO[C@@H]1O[C@H](Cn2cc(CO)nn2)[C@H]2OC(C)(C)O[C@@H]12"
  measure-name: "inhibition"
  measured: 46.5

For the next question, use this compound.
Task: Provide the documented inhibition with UniProt:P53341 as the system for "CC1(C)O[C@H]2O[C@H]([C@H]3COC(C)(C)O3)[C@@H](n3cc(-c4ccccc4)nn3)[C@H]2O1"
Result: 73.1

###

# tgt: Alpha-glucosidase MAL12 (Saccharomyces cerevisiae S288c) (UniProt P53341)
# Sequence (P53341 whole entry): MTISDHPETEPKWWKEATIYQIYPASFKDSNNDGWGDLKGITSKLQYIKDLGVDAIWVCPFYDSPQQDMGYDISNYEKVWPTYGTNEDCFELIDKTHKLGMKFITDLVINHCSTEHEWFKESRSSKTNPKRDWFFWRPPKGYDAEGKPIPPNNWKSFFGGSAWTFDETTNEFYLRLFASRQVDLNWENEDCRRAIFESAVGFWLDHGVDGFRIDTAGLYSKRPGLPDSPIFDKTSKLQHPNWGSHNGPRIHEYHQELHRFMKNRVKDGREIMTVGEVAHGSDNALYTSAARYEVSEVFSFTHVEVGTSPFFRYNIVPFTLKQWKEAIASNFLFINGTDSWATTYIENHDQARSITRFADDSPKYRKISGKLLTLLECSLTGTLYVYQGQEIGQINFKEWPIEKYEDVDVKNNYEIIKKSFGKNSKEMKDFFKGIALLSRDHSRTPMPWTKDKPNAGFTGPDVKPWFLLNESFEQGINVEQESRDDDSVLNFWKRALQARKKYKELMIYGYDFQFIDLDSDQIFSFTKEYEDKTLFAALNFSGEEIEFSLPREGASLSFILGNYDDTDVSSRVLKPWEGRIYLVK
# procedure-summary: Inhibition of yeast alpha-glucosidase MAL12 assessed as inhibition of p-nitrophenol release at 500 uM by spectrophotometry relative to control
Classify as follows. Reported inhibition greater than or equal to 90%: class 1. Reported inhibition below: class 0.

Look over these answered cases.
- smi: "CO[C@@H]1O[C@H](Cn2cc(COc3ccccc3)nn2)[C@H]2OC(C)(C)O[C@@H]12"
  answer-label: "class 1"
- smi: "CC1(C)O[C@H]2[C@@H](O1)[C@@H](Cn1cc(-c3ccccc3)nn1)O[C@@H]1OC(C)(C)O[C@@H]12"
  answer-label: "class 1"
- smi: "CO[C@@H]1O[C@H](Cn2cc(CCCCl)nn2)[C@H]2OC(C)(C)O[C@@H]12"
  answer-label: "class 1"

Task: Hi team, for "CC1(C)O[C@H]2O[C@H](Cn3cc(CO)nn3)[C@H](O)[C@H]2O1" , is the recorded inhibition at or above 90%?
Result: class 0

###

# tgt: Alpha-glucosidase MAL12 (Saccharomyces cerevisiae S288c, UniProt P53341)
# Sequence (P53341 whole entry): as above
measure-name: IC50 (µM)
One number for each entry, in µM.

Task: Report IC50 for "CCOC(=O)c1cn(C[C@H]2O[C@@H](OC)[C@@H]3OC(C)(C)O[C@@H]32)nn1" please.
Result: 15.1

###

# tgt: Alpha-glucosidase MAL12 (Saccharomyces cerevisiae S288c) (UniProt P53341)
# procedure-summary: Inhibition of yeast alpha-glucosidase MAL12 assessed as inhibition of p-nitrophenol release at 500 uM by spectrophotometry relative to control
Task for the reader: assign each of the following compounds its reported inhibition.
Give bare numbers, in %.

Sample records with inhibition:
- compound: "CCOC(=O)c1cn(C[C@H]2O[C@@H](OC)[C@@H]3OC(C)(C)O[C@@H]32)nn1"
  measured: 98
- compound: "CCCc1cn(C[C@H]2O[C@@H](OC)[C@@H]3OC(C)(C)O[C@@H]32)nn1"
  measured: 44.9
- compound: "C[C@H]1O[C@H](O[C@H]2[C@H](O)[C@@H](O)[C@@H](O[C@H]3[C@H](O)[C@@H](O)C(O)O[C@@H]3CO)O[C@@H]2CO)[C@H](O)[C@@H](O)[C@@H]1N[C@H]1C=C(CO)[C@@H](O)[C@H](O)[C@H]1O (stereo partly drawn)"
  measured: 48.1
- compound: "CO[C@@H]1O[C@H](Cn2cc(C3(O)CCCCC3)nn2)[C@H]2OC(C)(C)O[C@@H]12"
  measured: 98.5
- compound: "CC1(C)O[C@H]2O[C@H](Cn3cc(C4=CCCCC4)nn3)[C@H](O)[C@H]2O1"
  measured: 33.3
- compound: "CCC(C)(O)c1cn(C[C@H]2O[C@@H](OC)[C@@H]3OC(C)(C)O[C@@H]32)nn1 (stereo partly drawn)"
  measured: 41.1
- compound: "CO[C@@H]1O[C@H](Cn2cc(C(C)(C)O)nn2)[C@H]2OC(C)(C)O[C@@H]12"
  measured: 60.2

Task: Field request: inhibition | item: "CO[C@@H]1O[C@H](Cn2cc(C3=CCCCC3)nn2)[C@H]2OC(C)(C)O[C@@H]12"
Result: 98.1
